# pEC50 per entry
biological target: F508delCFTR cell surface expression in CFBE41o-F508delCFTR-HRP cells (Homo sapiens, UniProt P13569, DEL508-508); construct: fused on or other part: Horseradish peroxidase (HRP) reporter inserted in the fourth exofacial (extracellular) loop of CFTR; expression is doxycycline-inducible; experiment: Cell Surface Expression-Horse Radish Peroxidase (CSE-HRP) Assay; conditions: CFBE41o-F508delCFTR-HRP cells, 18-24 hours at 33° C., 8-point curve, highest concentration 20 μM
Sequence (P13569 with tags, fused parts or gaps DEL508-508 limits assumed): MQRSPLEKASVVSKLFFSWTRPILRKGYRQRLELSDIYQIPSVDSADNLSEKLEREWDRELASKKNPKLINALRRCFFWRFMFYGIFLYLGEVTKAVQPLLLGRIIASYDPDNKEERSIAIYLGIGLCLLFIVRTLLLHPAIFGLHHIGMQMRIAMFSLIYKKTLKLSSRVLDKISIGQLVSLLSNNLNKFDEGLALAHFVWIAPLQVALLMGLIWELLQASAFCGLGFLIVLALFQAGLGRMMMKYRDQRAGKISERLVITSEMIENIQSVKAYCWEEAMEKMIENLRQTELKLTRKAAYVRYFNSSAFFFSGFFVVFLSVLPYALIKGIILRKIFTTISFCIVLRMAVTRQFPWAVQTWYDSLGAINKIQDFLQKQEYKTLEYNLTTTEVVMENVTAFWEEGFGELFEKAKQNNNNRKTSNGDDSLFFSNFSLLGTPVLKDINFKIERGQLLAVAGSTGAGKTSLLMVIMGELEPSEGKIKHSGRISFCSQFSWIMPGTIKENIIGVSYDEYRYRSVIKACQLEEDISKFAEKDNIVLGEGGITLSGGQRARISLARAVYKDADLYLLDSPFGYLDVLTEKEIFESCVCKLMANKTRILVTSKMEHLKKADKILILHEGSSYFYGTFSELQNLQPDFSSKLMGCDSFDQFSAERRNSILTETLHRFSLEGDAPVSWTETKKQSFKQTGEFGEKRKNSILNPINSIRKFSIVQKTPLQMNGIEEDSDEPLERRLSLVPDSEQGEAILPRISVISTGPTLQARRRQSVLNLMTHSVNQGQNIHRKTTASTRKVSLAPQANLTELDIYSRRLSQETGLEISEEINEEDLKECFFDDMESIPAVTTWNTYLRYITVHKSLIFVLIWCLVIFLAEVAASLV
Sequence (P13569 919-1480 limits assumed, stated change not applied): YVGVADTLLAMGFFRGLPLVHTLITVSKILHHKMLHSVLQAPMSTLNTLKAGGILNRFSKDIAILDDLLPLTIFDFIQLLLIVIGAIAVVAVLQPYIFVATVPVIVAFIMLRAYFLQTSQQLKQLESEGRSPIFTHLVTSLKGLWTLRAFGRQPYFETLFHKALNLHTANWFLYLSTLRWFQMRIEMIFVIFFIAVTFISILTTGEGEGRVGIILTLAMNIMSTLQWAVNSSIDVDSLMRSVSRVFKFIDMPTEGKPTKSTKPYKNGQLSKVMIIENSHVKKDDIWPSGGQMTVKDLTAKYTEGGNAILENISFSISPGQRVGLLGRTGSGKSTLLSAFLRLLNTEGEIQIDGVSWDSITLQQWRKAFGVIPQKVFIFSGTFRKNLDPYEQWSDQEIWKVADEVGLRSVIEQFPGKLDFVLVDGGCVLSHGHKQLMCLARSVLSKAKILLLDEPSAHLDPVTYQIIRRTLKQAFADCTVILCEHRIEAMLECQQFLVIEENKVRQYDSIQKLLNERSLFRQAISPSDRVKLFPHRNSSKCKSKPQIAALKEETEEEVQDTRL
# log scale: pEC50 equals minus log10 of the concentration in mol/L

As a guide, the following entries are already answered.
| Molecule | Number |
| --- | --- |
| COc1ccc2c(c1)O[C@@H]([C@H]1CC[C@H](C(=O)O)CC1)C[C@H]2NC(=O)[C@@]1(C)COc2cc3c(cc21)OC(F)(F)O3 | 7.04 |
| O=C(O)c1ccc([C@@H]2C[C@H](NC(=O)C3(c4ccc5c(c4)OC(F)(F)O5)CC3)c3ccccc3N2)cc1 (single isomer, unassigned) | 5.56 |
| Cc1ccc(C(=O)O)cc1-c1cccc(NC(=O)[C@@]2(C)COc3cc4c(cc32)OC(F)(F)O4)n1 | 5.65 |
| COc1ccc2c(c1)O[C@@H](c1cnc(Cl)cn1)C[C@H]2NC(=O)[C@@]1(C)COc2cc3c(cc21)OC(F)(F)O3 | 6.74 |
| Cc1ccc(NC(=O)C2(C)CCc3c2ccc2c3OCO2)cc1-c1cccc(C(=O)O)c1 (stereo not drawn) | 5.91 |

Turning to the following molecule.
Quick one: give measured pEC50 for `COc1ccc2c(c1)O[C@@H](c1ccc(CO)cn1)C[C@H]2NC(=O)[C@@]1(C)COc2cc3c(cc21)OC(F)(F)O3`
6.92

Reference source for all entries: patent US9840513B2
